Cited source: paper PMC9597602

- System: Candida tropicalis ATCC 750
- Protocol notes: Antifungal MIC assay, extended panel
- Assay type: cell-based
- Setup conditions: Candida tropicalis, ATCC750; comparator antifungals; MIC = ≥80% inhibition
Starred links: 1 amine or outer side, 2 acyl side, 3 side chain; linkers in the order of their positions; H or OH if unused. Positions of bridges follow the written chain, without caps; N, C: chain ends. Non-standard residues stand in square brackets, D forms with d. Residues, ends and D or L forms follow the SMILES beside them. *: point of attachment. pTerphenylCO(4''-OnC5H11) = CCCCCOc1ccc(-c2ccc(-c3ccc(C(=O)*)cc3)cc2)cc1; Orn(4R-OH,5R-OH) = O=C([C@H](C[C@@H](O)[C@@H](O)N[*:3])N[*:1])[*:2]; hTyr(3S-OH,4S-OH) = N[C@H](C(=O)O)[C@H](O)[C@@H](O)c1ccc(O)cc1; Pro(3S-OH,4S-Me) = C[C@H]1CN[C@H](C(=O)O)[C@H]1O; Hyp = O=C(O)[C@@H]1C[C@@H](O)CN1
Quantity kind: MIC

# Molecule, Observed value
data = [
    ("Nc1nc(=O)[nH]cc1F [5-Fluorocytosine, reference compound]", "1 to 2 ng/mL"),
    ("CCCCCOc1ccc(-c2ccc(-c3ccc(C(=O)N[C@H]4C[C@@H](O)[C@@H](O)NC(=O)[C@@H]5[C@@H](O)[C@@H](C)CN5C(=O)[C@H]([C@@H](C)O)NC(=O)[C@H]([C@H](O)[C@@H](O)c5ccc(O)cc5)NC(=O)[C@@H]5C[C@@H](O)CN5C(=O)[C@H]([C@@H](C)O)NC4=O)cc3)cc2)cc1 [Anidulafungin, reference compound] ({pTerphenylCO(4''-OnC5H11)}-[Orn(4R-OH,5R-OH)]T[Hyp][hTyr(3S-OH,4S-OH)]T[Pro(3S-OH,4S-Me)]; lactam 1-C)", "4 to 8 ng/mL"),
    ("C[C@@H]1[C@H](O)[C@@H](C)/C=C/C=C/C=C/C=C/C=C/C=C/C=C/[C@H](O[C@@H]2O[C@H](C)[C@@H](O)[C@H](N)[C@@H]2O)C[C@@H]2O[C@](O)(C[C@@H](O)C[C@@H](O)[C@H](O)CC[C@@H](O)C[C@@H](O)CC(=O)O[C@H]1C)C[C@H](O)[C@H]2C(=O)O [Amphotericin B, reference compound]", "2000 to 4000 ng/mL"),
]

---

compounds and their reported RBC HC10
- Tested on: human red blood cells
- Type: cell-based
- Setup conditions: ranges obtained upon retesting, new batch

# Compound, RBC HC10
measured = [
    ("CC(C)C([O][Pt][Cl])C1=CCCC=CCC1 (stereo not drawn)", "> 100 µM"),
    ("C1=CCCC=CCC1.[Cl][Pd][Cl]", "10 µM"),
    ("CS(=O)(=O)[O][Pd][c]1ccccc1-c1ccccc1N.CS(=O)(=O)[O][Pd][c]1ccccc1-c1ccccc1N", "0.2 to 3 µM"),
    ("c1cnc([S][Au][PH](c2ccco2)(c2ccco2)c2ccco2)nc1", "90 to 200 µM"),
    ("Cc1c(C)c(-c2ccc(-c3ccccc3)cc2)[c-](C)c1C.Cc1ccccc1NC1=[NH+][Ir]([Cl])[NH]C(NS(=O)(=O)c2cccc3c(N(C)C)cccc23)=N1", "3 to 41 µM"),
    ("COc1ccc(/C=C/C2=NN(c3ccc(C(=O)[O][Ag])cc3)C(c3ccc(OC)c(OC)c3)C2)cc1OC.COc1ccc(/C=C/C2=NN(c3ccc(C(=O)[O][Ag])cc3)C(c3ccc(OC)c(OC)c3)C2)cc1OC (racemic)", "13 to 154 µM"),
]
